Reference for the values: patent US12685726B2

Biological target: human NaV 1.8 (Homo sapiens, UniProt Q9Y5Y9)
Sequence (Q9Y5Y9 whole entry): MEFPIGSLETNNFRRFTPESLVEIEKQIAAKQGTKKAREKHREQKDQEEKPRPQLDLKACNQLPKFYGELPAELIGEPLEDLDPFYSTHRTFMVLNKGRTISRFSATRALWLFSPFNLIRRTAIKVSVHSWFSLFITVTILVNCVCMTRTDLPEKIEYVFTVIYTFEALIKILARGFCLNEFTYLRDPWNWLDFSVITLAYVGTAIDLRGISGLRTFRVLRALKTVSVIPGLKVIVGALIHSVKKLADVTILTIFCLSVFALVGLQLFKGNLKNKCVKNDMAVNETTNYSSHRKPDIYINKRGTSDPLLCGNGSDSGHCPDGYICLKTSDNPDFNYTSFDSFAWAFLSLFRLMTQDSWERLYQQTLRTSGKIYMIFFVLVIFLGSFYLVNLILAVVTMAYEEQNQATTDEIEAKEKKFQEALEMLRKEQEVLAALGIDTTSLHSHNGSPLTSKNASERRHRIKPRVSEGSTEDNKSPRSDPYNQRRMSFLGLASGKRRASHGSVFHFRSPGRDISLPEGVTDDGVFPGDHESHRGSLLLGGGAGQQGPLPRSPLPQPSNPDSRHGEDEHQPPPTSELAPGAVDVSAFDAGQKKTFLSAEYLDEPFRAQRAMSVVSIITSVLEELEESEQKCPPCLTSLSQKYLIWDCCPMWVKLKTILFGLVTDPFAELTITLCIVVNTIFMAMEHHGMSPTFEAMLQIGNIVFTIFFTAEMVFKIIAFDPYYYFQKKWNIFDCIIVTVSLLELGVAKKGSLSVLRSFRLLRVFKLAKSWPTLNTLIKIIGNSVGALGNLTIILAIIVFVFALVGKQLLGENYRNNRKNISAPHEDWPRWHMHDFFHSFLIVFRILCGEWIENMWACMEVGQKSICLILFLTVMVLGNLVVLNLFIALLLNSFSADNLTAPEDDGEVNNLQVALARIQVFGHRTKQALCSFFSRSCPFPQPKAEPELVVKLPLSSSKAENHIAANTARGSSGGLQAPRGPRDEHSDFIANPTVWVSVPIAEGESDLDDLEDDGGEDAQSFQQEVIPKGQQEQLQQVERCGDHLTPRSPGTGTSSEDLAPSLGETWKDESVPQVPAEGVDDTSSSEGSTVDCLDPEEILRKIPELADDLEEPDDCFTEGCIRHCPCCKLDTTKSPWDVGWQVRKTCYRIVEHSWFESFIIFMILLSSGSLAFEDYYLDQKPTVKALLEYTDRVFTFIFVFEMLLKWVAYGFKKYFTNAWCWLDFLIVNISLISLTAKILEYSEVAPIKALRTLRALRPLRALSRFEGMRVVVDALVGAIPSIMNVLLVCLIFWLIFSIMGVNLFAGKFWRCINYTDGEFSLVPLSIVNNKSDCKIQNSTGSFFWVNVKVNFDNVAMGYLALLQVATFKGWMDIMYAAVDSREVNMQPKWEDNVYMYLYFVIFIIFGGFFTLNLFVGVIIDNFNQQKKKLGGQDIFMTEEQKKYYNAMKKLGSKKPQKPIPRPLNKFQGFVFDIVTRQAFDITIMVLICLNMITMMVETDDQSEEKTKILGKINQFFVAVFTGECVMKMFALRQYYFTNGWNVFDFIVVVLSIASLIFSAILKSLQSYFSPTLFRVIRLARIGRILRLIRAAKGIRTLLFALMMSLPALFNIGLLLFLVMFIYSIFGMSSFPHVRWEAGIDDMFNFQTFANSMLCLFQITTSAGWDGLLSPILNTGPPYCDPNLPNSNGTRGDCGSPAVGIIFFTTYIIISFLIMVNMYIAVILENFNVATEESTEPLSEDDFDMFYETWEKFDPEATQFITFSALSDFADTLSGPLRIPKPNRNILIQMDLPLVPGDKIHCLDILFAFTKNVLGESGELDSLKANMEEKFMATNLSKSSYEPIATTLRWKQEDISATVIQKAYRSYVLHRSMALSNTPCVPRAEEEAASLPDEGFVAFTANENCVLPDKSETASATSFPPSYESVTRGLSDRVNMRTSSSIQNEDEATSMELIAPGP
Assay: Automated whole-cell patch clamp (Qube384) voltage-clamp recordings of sodium currents in HEK-NaV1.8 cell line
Conditions: read-out: Potency category (human NaV 1.8 IC50)
pIC50: −log10 of the molar value.
Below is a list of entries, each paired with its recorded pIC50 value.

Consider the reported pIC50 for these compounds:
COMPOUND	pIC50
CC1(Cn2nc(C3(C(F)(F)F)CC3)c(C(F)(F)F)c2C(=O)Nc2ccnc(S(C)(=N)=O)c2)CC(F)(F)C1 (single isomer, unassigned) [Example 144a]	≥ 7.00
CS(=N)(=O)c1cc(NC(=O)c2c(C(F)(F)F)c(C3CC3)nn2CC23CCC(F)(CC2)C3)ccn1 (single isomer, unassigned) [Example 106a]	≥ 7.00
CC1(Cn2nc(C34CC(F)(C3)C4)c(C(F)(F)F)c2C(=O)Nc2ccc(F)c(S(C)(=N)=O)c2)CC(F)(F)C1 (single isomer, unassigned) [Example 141a]	≥ 7.00
COC1(c2nn(CC3(C)CC(F)(F)C3)c(C(=O)Nc3ccnc(S(C)(=N)=O)c3)c2C(F)(F)F)CC1 (single isomer, unassigned) [Example 71a]	6.00 to 7.00
C[C@H]1C[C@@H]1c1nn(CC2(C)CC(F)(F)C2)c(C(=O)Nc2ccnc([S@@](C)(=N)=O)c2)c1C(F)(F)F (single isomer, unassigned) [Example 65b]	≥ 7.00

I have this compound here, CS(=N)(=O)c1cc(NC(=O)c2c(C(F)(F)F)c(C3CC3)nn2CC23CC2CC(F)(F)C3)ccn1 (single isomer, unassigned) [Example 95c] , and I need its recorded pIC50.
≥ 7.00

---

We begin with a simple list: items and their reported pIC50.
Molecular target: human NaV 1.8 (Homo sapiens)
Assay: Automated whole-cell patch clamp (Qube384) voltage-clamp recordings of sodium currents in HEK-NaV1.8 cell line
Conditions: read-out: Potency category (human NaV 1.8 IC50)
pIC50: −log10 of the molar value.

Check out these entries, answers already filled in.
COMPOUND	pIC50
CS(=N)(=O)c1cc(NC(=O)c2c(C(F)(F)F)c(C3CC3)nn2CC23CC2CC(F)(F)C3)ccn1 (single isomer, unassigned) [Example 95b]	≥ 7.00
CS(=N)(=O)c1cc(NC(=O)c2c(C(F)(F)F)c(C3CC3)nn2CC2CCC23CNC3)ccn1 (single isomer, unassigned) [Example 153b]	5.00 to 6.00
C[S@@](=N)(=O)c1cc(NC(=O)c2c(C(F)(F)F)c(C3CC3)nn2C[C@H]2CC23CC3)ccn1 (single isomer, unassigned) [Example 78c]	≥ 7.00

Form: Entry = CC1(Cn2nc(C3(F)CC3)c(C(F)(F)F)c2C(=O)Nc2ccnc(S(C)(=N)=O)c2)CC(F)(F)C1 (single isomer, unassigned) [Example 70b] | System = human NaV 1.8 (Homo sapiens) | pIC50 = ____
≥ 7.00

Query for human NaV 1.8 (Homo sapiens): what pIC50 does the record show for CC(=O)N1CC2(CCC2Cn2nc(C3CC3)c(C(F)(F)F)c2C(=O)Nc2ccnc(S(C)(=N)=O)c2)C1 (single isomer, unassigned) [Example 140a] ?
6.00 to 7.00

---

Target: human NaV 1.8 (Homo sapiens, UniProt Q9Y5Y9)
Test: Automated whole-cell patch clamp (Qube384) voltage-clamp recordings of sodium currents in HEK-NaV1.8 cell line
Conditions: read-out: Potency category (human NaV 1.8 IC50)
# IC50 per record follows

These recorded examples may help you get a feel for the data.
MOLECULE	IC50
CS(=N)(=O)c1cc(NC(=O)c2c(C(F)(F)F)c(C3CC3)nn2CC2CCC23CNC3)ccn1 (single isomer, unassigned) [Example 153a]	1000 to 10000 nM
Cc1c(C(C)(F)F)nn(CC2CCC(F)(F)C2)c1C(=O)Nc1ccnc(S(C)(=N)=O)c1 (stereo not drawn)	≤ 100 nM
CC1(Cn2nc(C3CC3(F)F)c(C(F)(F)F)c2C(=O)Nc2ccnc(S(C)(=N)=O)c2)CC(F)(F)C1 (single isomer, unassigned) [Example 63a]	≤ 100 nM

Give IC50 (human NaV 1.8 (Homo sapiens, UniProt Q9Y5Y9)) of the following molecule: Cc1c(C(C)(F)F)nn(CC2CCC(F)(F)CC2)c1C(=O)Nc1ccnc(S(C)(=N)=O)c1 (single isomer, unassigned) [Example 9b]
≤ 100 nM

Value wanted: IC50 (human NaV 1.8 (Homo sapiens, UniProt Q9Y5Y9)) of entry C[S@](=N)(=O)c1cc(NC(=O)c2c(C(F)(F)F)c(C3CC3)nn2C[C@]2(C)C[C@@H](C(F)(F)F)C2)ccn1 (single isomer, unassigned) [Example 86d]
≤ 100 nM

I'm curious: which IC50 was measured for CC1(Cn2nc(C3(F)CC3)c(C(F)(F)F)c2C(=O)Nc2cccc([S@@](C)(=O)=NC(=O)CO)c2)CC(F)(F)C1 [Example 151a] tested on human NaV 1.8 (Homo sapiens, UniProt Q9Y5Y9)?
≤ 100 nM

---

Target: human NaV 1.8 (Homo sapiens, UniProt Q9Y5Y9)
Assay: Automated whole-cell patch clamp (Qube384) voltage-clamp recordings of sodium currents in HEK-NaV1.8 cell line
Details: read-out: Potency category (human NaV 1.8 IC50)
QUANTITY_KIND: IC50

MOLECULE	IC50
CC1(Cn2nc(C3CC3)c(C(F)(F)F)c2C(=O)Nc2cncc(S(C)(=N)=O)c2)CC(F)(F)C1 (single isomer, unassigned) [Example 46a]	≤ 100 nM
CS(=N)(=O)c1cc(NC(=O)c2c(C(F)(F)F)c(C3CC3)nn2CC23CC(F)(C2)C3)ccn1 (single isomer, unassigned) [Example 25b]	100 to 1000 nM
CC1(Cn2nc(C34CC(F)(C3)C4)c(C(F)(F)F)c2C(=O)Nc2cccc(S(C)(=N)=O)c2)CC(F)(F)C1 (single isomer, unassigned) [Example 111b]	≤ 100 nM
CS(=N)(=O)c1cc(NC(=O)c2c(C(F)(F)F)c(C3CC3)nn2CC2C(F)(F)C23CCC3)ccn1 (single isomer, unassigned) [Example 136a]	≤ 100 nM

Endpoint output: IC50 of C[S@@](=N)(=O)c1cc(NC(=O)c2c(C(F)(F)F)c(C3CC3)nn2C[C@]2(C)C[C@H](C(F)(F)F)C2)ccn1 (single isomer, unassigned) [Example 86a] . Value?
≤ 100 nM

Entry CC1(Cn2nc(C(C)(C)F)c(C(F)(F)F)c2C(=O)Nc2ccnc(S(C)(=N)=O)c2)CC(F)(F)C1 (single isomer, unassigned) [Example 148a] has what IC50?
≤ 100 nM

Fill blank: measured IC50 of the molecule C[S@@](=N)(=O)c1cccc(NC(=O)c2c(C(F)(F)F)c(C3(F)CC3)nn2CC2C[C@H]2C(F)(F)F)c1 (single isomer, unassigned) [Example 134c] is ____.
≤ 100 nM

Look at this molecule and give its reported IC50. CC1(Cn2nc(C3CC3(F)F)c(C(F)(F)F)c2C(=O)Nc2ccnc(S(C)(=N)=O)c2)CC(F)(F)C1 (single isomer, unassigned) [Example 63c]
≤ 100 nM

Consider the molecule CS(=N)(=O)c1cc(NC(=O)c2c(C(F)(F)F)c(OC(F)F)nn2CC2CCC(F)(F)C2)ccn1 (stereo not drawn) [Example 33] and give its measured IC50.
≤ 100 nM

IC50 lookup needed for CS(=N)(=O)c1cc(NC(=O)c2c(C(F)(F)F)c(C3CC3)nn2CC2(C(F)(F)F)CCCC2)ccn1 (single isomer, unassigned) [Example 98b] , thanks.
≤ 100 nM

Please look up its IC50: CC1(Cn2nc(C3CCCC3)c(C(F)(F)F)c2C(=O)Nc2ccnc(S(C)(=N)=O)c2)CC(F)(F)C1 (single isomer, unassigned) [Example 59b]
≤ 100 nM

Given the molecule CC1(Cn2nc(C34CC(C3)C4)c(C(F)F)c2C(=O)Nc2ccnc(S(C)(=N)=O)c2)CC(F)(F)C1 (single isomer, unassigned) [Example 137b] , what is its reported IC50?
≤ 100 nM

---

Below is a list of entries, each paired with its recorded pIC50 value.
Biological target: human NaV 1.8 (Homo sapiens)
Experiment: Automated whole-cell patch clamp (Qube384) voltage-clamp recordings of sodium currents in HEK-NaV1.8 cell line
Conditions: read-out: Potency category (human NaV 1.8 IC50)
pIC50: −log10 of the molar value.

COMPOUND	ENDPOINT_RESULT
CS(=N)(=O)c1cc(NC(=O)c2c(C(F)(F)F)c(C34CC(C3)C4)nn2CC2C[C@@H]2C(F)F)ccn1 (stereo in doubt) [Example 146]	≥ 7.00

For the compound CCS(=N)(=O)c1cc(NC(=O)c2c(C(F)(F)F)c(C3CC3)nn2CC2(C)CC(F)(F)C2)ccn1 (single isomer, unassigned) [Example 48b] , what pIC50 is on record?
≥ 7.00

Quick one: pIC50 of CC1(Cn2nc(C(C)(F)F)c(C(F)(F)F)c2C(=O)Nc2ccnc(S(C)(=N)=O)c2)CC(F)(F)C1 (single isomer, unassigned) [Example 75b] ?
≥ 7.00

Record request: pIC50 value, item CS(=N)(=O)c1cc(NC(=O)c2c(C(F)(F)F)c(C3CC3)nn2CC2CCC23CNC3)ccn1 (single isomer, unassigned) [Example 153d]
5.00 to 6.00

Give the measured pIC50 of CS(=N)(=O)c1cc(NC(=O)c2c(C(F)(F)F)c(C3CC3)nn2CC2CCC23CNC3)ccn1 (single isomer, unassigned) [Example 153c] .
5.00 to 6.00

So what does the record say about pIC50 for CS(=N)(=O)c1cc(NC(=O)c2c(C(F)(F)F)c(C3CC3)nn2CC2C(F)(F)C23CCC3)ccn1 (single isomer, unassigned) [Example 136c] ?
≥ 7.00
